# System Tested: T1, EsCas13d, nuclease-dead (Eubacterium siraeum, UniProt B0MS50, R295A;H300A;R849A;H854A)
# T1 sequence: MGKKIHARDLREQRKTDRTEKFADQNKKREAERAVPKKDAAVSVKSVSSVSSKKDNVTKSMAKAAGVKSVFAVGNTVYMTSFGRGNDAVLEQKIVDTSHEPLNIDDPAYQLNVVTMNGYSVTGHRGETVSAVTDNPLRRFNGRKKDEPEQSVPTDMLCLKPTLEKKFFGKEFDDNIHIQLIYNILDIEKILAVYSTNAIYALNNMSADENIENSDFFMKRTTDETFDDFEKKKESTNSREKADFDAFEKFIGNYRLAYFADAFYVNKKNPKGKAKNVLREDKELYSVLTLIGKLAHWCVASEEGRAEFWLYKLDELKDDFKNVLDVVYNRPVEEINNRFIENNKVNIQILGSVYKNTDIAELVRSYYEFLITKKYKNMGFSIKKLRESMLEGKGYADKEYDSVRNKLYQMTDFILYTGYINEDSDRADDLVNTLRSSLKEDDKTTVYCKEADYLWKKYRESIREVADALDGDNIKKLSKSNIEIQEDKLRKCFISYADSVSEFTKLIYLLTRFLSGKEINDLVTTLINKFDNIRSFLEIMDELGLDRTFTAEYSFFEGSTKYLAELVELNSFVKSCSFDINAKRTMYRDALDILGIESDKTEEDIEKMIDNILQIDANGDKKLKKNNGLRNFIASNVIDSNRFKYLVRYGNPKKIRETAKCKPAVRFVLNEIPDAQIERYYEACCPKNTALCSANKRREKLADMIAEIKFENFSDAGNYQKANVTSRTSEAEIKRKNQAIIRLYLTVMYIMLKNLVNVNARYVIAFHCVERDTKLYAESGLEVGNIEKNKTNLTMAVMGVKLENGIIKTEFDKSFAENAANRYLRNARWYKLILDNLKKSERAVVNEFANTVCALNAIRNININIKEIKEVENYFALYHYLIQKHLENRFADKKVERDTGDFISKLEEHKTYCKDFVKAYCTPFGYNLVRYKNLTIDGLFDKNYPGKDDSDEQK
# Procedure Details: crRNA (strand 1, pre-loaded); Mg2+; 40 mM Tris-HCl pH 7.5, 150 mM NaCl, 6 mM MgCl2, 1 mM DTT, 0.1% Tween-20, 0.2 mg/ml BSA; 25 C; 10 min per concentration, then washed
# Particulars: tags: His6-TwinStrep-SUMO cleaved; N-terminal SNAP kept (SNAP-Surface 488); label: 3' end held by stalled T7 RNA polymerase
Each entry below carries its reported log10 of Kd.
Readout Label: log10 of Kd (log10 of the value in nM)

[[record]]
binder = "target 2 MT 5'PFS CUC 3'PFS AGG (mixed) RNA 1: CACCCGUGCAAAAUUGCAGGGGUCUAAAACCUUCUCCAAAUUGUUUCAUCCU RNA 2: GGGAAUGGAUCCACAUCUACGAAUUCCUCAGGAUGAAACAAUUUGGAGAAGAGGAGAUCGGAAGAGCACACGU"
readout_label = "log10 of Kd"
value_reported = 0.45

[[record]]
binder = "target 1 MT 5'PFS GCA 3'PFS UUG (mixed) RNA 1: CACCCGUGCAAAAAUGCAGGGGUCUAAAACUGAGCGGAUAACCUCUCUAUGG RNA 2: GGGAAUGGAUCCACAUCUACGAAUUCGCACCAUAGAGAGGUUAUCCGCUCAUUGAGAUCGGAAGAGCACACGU"
readout_label = "log10 of Kd"
value_reported = 0.71

[[record]]
binder = "target 1 MT 5'PFS GUU 3'PFS ACC (mixed) RNA 1: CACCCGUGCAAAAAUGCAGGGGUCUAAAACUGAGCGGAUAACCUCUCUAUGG RNA 2: GGGAAUGGAUCCACAUCUACGAAUUCGUUCCAUAGAGAGGUUAUCCGCUCAACCAGAUCGGAAGAGCACACGU"
readout_label = "log10 of Kd"
value_reported = 1.25

[[record]]
binder = "target 1 U3G,U10G (mixed) RNA 1: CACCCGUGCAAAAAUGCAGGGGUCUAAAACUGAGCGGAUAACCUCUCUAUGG RNA 2: GGGAAUGGAUCCACAUCUACGAAUUCGUACCAUAGAGAGGUGAUCCGCGCACCGAGAUCGGAAGAGCACACGU"
readout_label = "log10 of Kd"
value_reported = 1.55

[[record]]
binder = "target 1 insU 3' of 7,insA 3' of 6 (mixed) RNA 1: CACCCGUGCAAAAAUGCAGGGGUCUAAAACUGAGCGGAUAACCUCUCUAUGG RNA 2: GGGAAUGGAUCCACAUCUACGAAUUCGUACCAUAGAGAGGUUAUCUCAGCUCACCGAGAUCGGAAGAGCACACGU"
readout_label = "log10 of Kd"
value_reported = 1.37

[[record]]
binder = "target 2 MT 5'PFS ACA 3'PFS AGG (mixed) RNA 1: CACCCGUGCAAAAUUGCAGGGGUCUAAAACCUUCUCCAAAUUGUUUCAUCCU RNA 2: GGGAAUGGAUCCACAUCUACGAAUUCACAAGGAUGAAACAAUUUGGAGAAGAGGAGAUCGGAAGAGCACACGU"
readout_label = "log10 of Kd"
value_reported = 0.69

[[record]]
binder = "target 1 A16U,C21U (mixed) RNA 1: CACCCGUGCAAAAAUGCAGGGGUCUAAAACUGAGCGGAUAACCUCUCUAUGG RNA 2: GGGAAUGGAUCCACAUCUACGAAUUCGUACUAUAGUGAGGUUAUCCGCUCACCGAGAUCGGAAGAGCACACGU"
readout_label = "log10 of Kd"
value_reported = 1.07

[[record]]
binder = "target 2 MT 5'PFS GCC 3'PFS AUA (mixed) RNA 1: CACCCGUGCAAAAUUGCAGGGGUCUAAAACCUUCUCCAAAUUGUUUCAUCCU RNA 2: GGGAAUGGAUCCACAUCUACGAAUUCGCCAGGAUGAAACAAUUUGGAGAAGAUAAGAUCGGAAGAGCACACGU"
readout_label = "log10 of Kd"
value_reported = 1.02

[[record]]
binder = "target 2 MT 5'PFS AAG 3'PFS AUU (mixed) RNA 1: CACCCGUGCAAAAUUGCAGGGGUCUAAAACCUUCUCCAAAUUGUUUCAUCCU RNA 2: GGGAAUGGAUCCACAUCUACGAAUUCAAGAGGAUGAAACAAUUUGGAGAAGAUUAGAUCGGAAGAGCACACGU"
readout_label = "log10 of Kd"
value_reported = 0.61

[[record]]
binder = "target 1 U3G,C4A (mixed) RNA 1: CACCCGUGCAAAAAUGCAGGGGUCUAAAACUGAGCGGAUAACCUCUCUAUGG RNA 2: GGGAAUGGAUCCACAUCUACGAAUUCGUACCAUAGAGAGGUUAUCCGAGCACCGAGAUCGGAAGAGCACACGU"
readout_label = "log10 of Kd"
value_reported = 0.62

[[record]]
binder = "target 1 U11G,U19C (mixed) RNA 1: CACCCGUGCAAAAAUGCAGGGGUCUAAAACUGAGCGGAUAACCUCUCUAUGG RNA 2: GGGAAUGGAUCCACAUCUACGAAUUCGUACCACAGAGAGGGUAUCCGCUCACCGAGAUCGGAAGAGCACACGU"
readout_label = "log10 of Kd"
value_reported = 1.93

[[record]]
binder = "target 1 insU 3' of 21,insG 3' of 4 (mixed) RNA 1: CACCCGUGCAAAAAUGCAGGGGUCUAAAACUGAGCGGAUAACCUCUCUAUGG RNA 2: GGGAAUGGAUCCACAUCUACGAAUUCGUACCUAUAGAGAGGUUAUCCGCGUCACCGAGAUCGGAAGAGCACACGU"
readout_label = "log10 of Kd"
value_reported = 1.40

[[record]]
binder = "target 1 insU 3' of 18,insG 3' of 16 (mixed) RNA 1: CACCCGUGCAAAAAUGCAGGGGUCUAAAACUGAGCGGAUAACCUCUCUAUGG RNA 2: GGGAAUGGAUCCACAUCUACGAAUUCGUACCAUAUGAGGAGGUUAUCCGCUCACCGAGAUCGGAAGAGCACACGU"
readout_label = "log10 of Kd"
value_reported = 1.86

